# experiment: NCI Yeast Anticancer Drug Screen. Data for the rad50 strain (AID 155)
# appliedConditions: S. cerevisiae rad50 strain growth inhibition; at 5.0 µM (retest, dose inferred, filed as 0.5)
About 79,000 compounds went through this panel and 15% of them were active in at least one assay; those are over-represented in the sample as a whole. The source made the active and inactive calls. Cut-off read from the data, not from the text of the source: active = growth inhibition above about 70%; inactive = the rest.
# output must be one of True = active, False = inactive

[[record]]
compound = "NS(=O)(=O)c1ccc(Nc2c3ccccc3nc3c(C(=O)N4CCN(CCO)CC4)cccc23)cc1"
classname = "False"

[[record]]
compound = "CCCCCCCCCC(=O)c1ccc(O)c(O)c1O"
classname = "True"


In: I would be grateful if you could indicate the recorded call for CN1CCN(CN2C(=O)C3C4C=CC(C3C2=O)C2C3C(=O)N(CN5CCN(C)CC5)C(=O)C3C42)CC1 (stereo not drawn) .
Out: False

In: Each compound tested received a call. Report the one for C[C@@H](O)[C@H]1CC[C@H]2[C@@H]3CCC4=C/C(=N/O)CC[C@]4(C)[C@H]3CC[C@]12C .
Out: False

In: Record request — test call for O=C1c2cccc(O)c2C(=O)c2cccc(O)c21
Out: False

In: GET /call?item= CN(C)c1ccc(/C=C/c2ccc3ccccc3[n+]2C)cc1 returns the recorded outcome of this test.
Out: False

In: What outcome does the record of this test show for CC(=O)Nc1ccc(S(=O)(=O)N/N=C/c2ccc(C)cc2)cc1 ?
Out: False

In: Give the logged outcome of this assay for the following compound: CO[C@H](C(=O)[C@@H](O)[C@@H](C)O)[C@@H]1Cc2cc3cc(OC4CC(OC5CC(O)C(O)C(C)O5)C(O)C(C)O4)c(C)c(O)c3c(O)c2C(=O)[C@H]1OC1CC(OC2CC(OC3CC(C)(O)C(O)C(C)O3)C(O)C(C)O2)C(O)C(C)O1 (stereo partly drawn)
Out: False
